Each record here notes measured log10(EC50).
- target_desc: AhR (Homo sapiens)
- Sequence (P35869 11-848): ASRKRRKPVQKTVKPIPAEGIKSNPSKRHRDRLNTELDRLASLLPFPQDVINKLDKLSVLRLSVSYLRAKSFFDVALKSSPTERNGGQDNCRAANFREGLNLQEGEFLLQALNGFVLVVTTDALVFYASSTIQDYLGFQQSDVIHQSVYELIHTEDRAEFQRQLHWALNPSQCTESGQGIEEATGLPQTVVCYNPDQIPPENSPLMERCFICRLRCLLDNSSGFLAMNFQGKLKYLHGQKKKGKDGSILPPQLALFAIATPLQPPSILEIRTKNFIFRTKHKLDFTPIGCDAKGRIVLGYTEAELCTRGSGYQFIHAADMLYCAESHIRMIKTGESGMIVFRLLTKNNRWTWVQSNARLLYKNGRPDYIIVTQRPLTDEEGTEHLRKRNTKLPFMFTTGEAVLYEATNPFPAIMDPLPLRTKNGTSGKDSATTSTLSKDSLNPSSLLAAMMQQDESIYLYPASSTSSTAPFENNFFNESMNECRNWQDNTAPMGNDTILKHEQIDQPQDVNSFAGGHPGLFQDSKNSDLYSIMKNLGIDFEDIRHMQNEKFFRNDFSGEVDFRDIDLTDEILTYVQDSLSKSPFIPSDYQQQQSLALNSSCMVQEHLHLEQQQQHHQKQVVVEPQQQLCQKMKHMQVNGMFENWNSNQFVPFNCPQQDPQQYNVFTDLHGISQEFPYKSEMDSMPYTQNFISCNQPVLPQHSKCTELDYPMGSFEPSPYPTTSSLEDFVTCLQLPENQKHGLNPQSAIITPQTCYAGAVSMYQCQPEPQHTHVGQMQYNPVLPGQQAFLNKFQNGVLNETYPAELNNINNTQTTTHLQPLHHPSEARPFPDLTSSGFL
- Sequence (P27540 whole entry partner): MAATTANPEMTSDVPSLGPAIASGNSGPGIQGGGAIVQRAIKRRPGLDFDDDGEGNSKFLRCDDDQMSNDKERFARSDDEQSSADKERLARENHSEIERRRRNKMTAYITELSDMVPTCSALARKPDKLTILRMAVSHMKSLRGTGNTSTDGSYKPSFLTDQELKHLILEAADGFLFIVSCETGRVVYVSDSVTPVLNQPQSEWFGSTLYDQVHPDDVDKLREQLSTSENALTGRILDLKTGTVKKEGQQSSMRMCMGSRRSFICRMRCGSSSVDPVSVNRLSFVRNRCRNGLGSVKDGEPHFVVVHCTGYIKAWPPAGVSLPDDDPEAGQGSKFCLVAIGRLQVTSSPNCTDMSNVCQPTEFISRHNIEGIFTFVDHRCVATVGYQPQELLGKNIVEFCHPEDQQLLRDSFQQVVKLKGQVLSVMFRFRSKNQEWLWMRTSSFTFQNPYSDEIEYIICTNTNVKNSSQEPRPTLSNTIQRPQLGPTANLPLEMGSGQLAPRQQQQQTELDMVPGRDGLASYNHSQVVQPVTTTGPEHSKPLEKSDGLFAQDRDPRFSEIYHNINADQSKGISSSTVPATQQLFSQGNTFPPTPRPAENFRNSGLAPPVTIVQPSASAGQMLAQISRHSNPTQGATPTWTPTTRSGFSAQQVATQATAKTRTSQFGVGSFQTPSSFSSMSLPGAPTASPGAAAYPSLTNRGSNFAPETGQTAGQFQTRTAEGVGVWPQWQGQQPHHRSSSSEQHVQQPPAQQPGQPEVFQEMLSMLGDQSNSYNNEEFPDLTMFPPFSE
- measurement_description: Yeast AhR reporter assay (β-galactosidase)
- run_conditions: read-out: EC50 AhR (yeast); Table 4; * = inactive at the indicated highest concentration tested
Form field - Quantity: EC50; Unit: nM; Scale: log10

[Q] API: value(readout= log10(EC50), system= AhR (Homo sapiens), query= O=C1Nc2ccccc2/C1=C1/Nc2cc(Br)ccc2C1=O [12a, 6′-Bromoindirubin] )
[A] 2.00

[Q] Another molecule to look at: O=C1Nc2cc(Br)ccc2C1=C1Nc2ccccc2C1=O
[A] 1.30

----------
- target_desc: protein kinase C α (Homo sapiens, UniProt P17252)
- measurement_description: protein kinase C α assay
- run_conditions: read-out: IC50 protein kinase C α; Table 2, 15 μM ATP
assay_metric: IC50

{"molecule": "CON=C1C(=C2C(=O)Nc3cc(Br)ccc32)Nc2ccccc21 [9a, 6-Bromoindirubin-3′-methoxime]", "value_measured": "> 10 µM"}

Proceeding to the next molecule to report its IC50.
[Q] Name the reported IC50 value associated with the molecule CC(=O)ON=C1C(=C2C(=O)Nc3cc(Br)ccc32)Nc2ccccc21 [8a, 6-Bromoindirubin-3′-acetoxime]
[A] > 10 µM

----------
- target_desc: GSK-3α/β
- measurement_description: GSK-3α/β kinase assay (GS-1 peptide, 15 μM ATP)
- Format: biochemical, porcine
- run_conditions: Table 5; read-out: IC50 GSK-3α/β
assay_metric: pIC50
// pIC50: -log10(molar conc.)

Example molecules with recorded pIC50:
{"smiles_data": "O=C1Nc2cc(F)ccc2C1=C1Nc2ccccc2C1=NO", "target_desc": "GSK-3α/β", "pIC50": 6.89}
{"smiles_data": "CC(=O)ON=C1C(=C2C(=O)Nc3cc(Br)c([N+](=O)[O-])cc32)Nc2ccccc21", "target_desc": "GSK-3α/β", "pIC50": 8.22}
{"smiles_data": "O=C1Nc2cc(I)ccc2/C1=C1/Nc2ccccc2C1=O", "target_desc": "GSK-3α/β", "pIC50": 7.26}
{"smiles_data": "CC(=O)ON=C1C(=C2C(=O)Nc3cc(Br)c(C)cc32)Nc2ccccc21", "target_desc": "GSK-3α/β", "pIC50": 8.15}

[Q] Name the reported pIC50 value associated with the molecule C=Cc1ccc2c(c1)NC(=O)/C2=C1\Nc2ccccc2C1=O
[A] 6.62

----------
Each record here notes measured IC50.
- target_desc: CDK1/cyclin B
- measurement_description: CDK1/cyclin B kinase assay (histone H1, 15 μM ATP)
- Type: biochemical, starfish (Marthasterias glacialis)
- run_conditions: Table 1; read-out: IC50 CDK1/cyclin B

Example compounds with recorded IC50:
{"compound": "O=C1Nc2ccccc2/C1=C1/Nc2cc(Br)ccc2C1=O [12a, 6′-Bromoindirubin]", "IC50": "> 100 µM"}
{"compound": "O=C1Nc2cc(Br)ccc2C1=C1Nc2cc(Br)ccc2C1=NO [13b, 6,6′-dibromo-indirubin-3′-oxime]", "IC50": "17 µM"}
{"compound": "CON=C1C(=C2C(=O)Nc3cc(Br)ccc32)Nc2ccccc21 [9a, 6-Bromoindirubin-3′-methoxime]", "IC50": "3.4 µM"}
{"compound": "CC(=O)ON=C1C(=C2C(=O)Nc3cc(Br)ccc32)Nc2ccccc21 [8a, 6-Bromoindirubin-3′-acetoxime]", "IC50": "63 µM"}
{"compound": "O=C1Nc2cc(Br)ccc2/C1=C1/Nc2cc(Br)ccc2C1=O [12b, 6,6′-Dibromoindirubin]", "IC50": "≥ 100 µM"}

[Q] API: value(readout= IC50, system= CDK1/cyclin B, query= CN1C(=O)C(=C2Nc3ccccc3C2=NO)c2ccccc21 [13d, 1-Methylindirubin-3′-oxime] )
[A] 73 µM

----------
- target_desc: GSK-3α/β
- measurement_description: GSK-3α/β kinase assay (GS-1 peptide, 15 μM ATP)
- Format: biochemical, porcine
- run_conditions: Table 1; read-out: IC50 GSK-3 α/β
Each record here notes measured pIC50.
// pIC50: -log10(molar conc.)

Example compounds with recorded pIC50:
{"compound": "O=C1Nc2ccccc2/C1=C1/Nc2cc(Br)ccc2C1=O [12a, 6′-Bromoindirubin]", "value_measured": 4.66}
{"compound": "CC(=O)ON=C1C(=C2C(=O)Nc3cc(Br)ccc32)Nc2ccccc21", "value_measured": 8.00}
{"compound": "O=C1Nc2cc(Br)ccc2C1=C1Nc2cc(Br)ccc2C1=NO [13b, 6,6′-dibromo-indirubin-3′-oxime]", "value_measured": 6.92}
{"compound": "CON=C1C(=C2C(=O)Nc3cc(Br)ccc32)Nc2ccccc21", "value_measured": 7.52}
{"compound": "CN1C(=O)C(=C2Nc3ccccc3C2=NO)c2ccc(Br)cc21 [13c, 6-Bromo-1-methylindirubin-3′-oxime]", "value_measured": 4.36}

[Q] Name the reported pIC50 value associated with the compound O=C1Nc2cc(Br)ccc2/C1=C1/Nc2cc(Br)ccc2C1=O [12b, 6,6′-Dibromoindirubin]
[A] 5.35

----------
- target_desc: CDK5/p25 (Homo sapiens)
- Sequence (Q00535 whole entry, species assumed): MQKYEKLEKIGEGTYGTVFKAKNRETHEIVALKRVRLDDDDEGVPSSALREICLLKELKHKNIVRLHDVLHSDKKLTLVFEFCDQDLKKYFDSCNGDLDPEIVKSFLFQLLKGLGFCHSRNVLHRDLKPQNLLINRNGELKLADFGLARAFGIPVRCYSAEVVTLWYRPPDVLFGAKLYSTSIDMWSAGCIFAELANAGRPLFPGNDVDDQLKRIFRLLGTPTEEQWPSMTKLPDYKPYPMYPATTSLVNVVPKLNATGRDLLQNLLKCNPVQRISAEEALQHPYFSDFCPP
- Sequence (Q15078 99-307 partner limits assumed, species assumed): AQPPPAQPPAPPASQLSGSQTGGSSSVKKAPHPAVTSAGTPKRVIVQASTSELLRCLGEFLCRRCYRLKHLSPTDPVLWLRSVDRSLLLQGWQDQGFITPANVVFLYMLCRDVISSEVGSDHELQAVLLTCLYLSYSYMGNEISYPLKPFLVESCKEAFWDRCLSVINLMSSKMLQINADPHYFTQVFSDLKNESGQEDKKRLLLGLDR
- measurement_description: CDK5/p25 kinase assay (histone H1, 15 μM ATP)
- Format: biochemical, mammalian
assay_metric: pIC50
// pIC50: -log10(molar conc.)

[Q] Name the reported pIC50 value associated with the molecule Nc1ccc2c(c1)C(=C1Nc3ccccc3C1=O)C(=O)N2
[A] 5.59

----------
- target_desc: CDK1/cyclin B
- measurement_description: CDK1/cyclin B kinase assay (histone H1, 15 μM ATP)
- Assay type: biochemical, starfish (Marthasterias glacialis)
- run_conditions: read-out: IC50 CDK1/cycin B
assay_metric: pIC50
// pIC50: -log10(molar conc.)

[Q] Name the reported pIC50 value associated with the molecule Cc1ccc2c(c1)/C(=C1/Nc3ccccc3C1=O)C(=O)N2 [compound 15, 5-methyl-indirubin, reference compound]
[A] 6.55

----------
- target_desc: UniProt Q05513
- Sequence (Q05513 whole entry): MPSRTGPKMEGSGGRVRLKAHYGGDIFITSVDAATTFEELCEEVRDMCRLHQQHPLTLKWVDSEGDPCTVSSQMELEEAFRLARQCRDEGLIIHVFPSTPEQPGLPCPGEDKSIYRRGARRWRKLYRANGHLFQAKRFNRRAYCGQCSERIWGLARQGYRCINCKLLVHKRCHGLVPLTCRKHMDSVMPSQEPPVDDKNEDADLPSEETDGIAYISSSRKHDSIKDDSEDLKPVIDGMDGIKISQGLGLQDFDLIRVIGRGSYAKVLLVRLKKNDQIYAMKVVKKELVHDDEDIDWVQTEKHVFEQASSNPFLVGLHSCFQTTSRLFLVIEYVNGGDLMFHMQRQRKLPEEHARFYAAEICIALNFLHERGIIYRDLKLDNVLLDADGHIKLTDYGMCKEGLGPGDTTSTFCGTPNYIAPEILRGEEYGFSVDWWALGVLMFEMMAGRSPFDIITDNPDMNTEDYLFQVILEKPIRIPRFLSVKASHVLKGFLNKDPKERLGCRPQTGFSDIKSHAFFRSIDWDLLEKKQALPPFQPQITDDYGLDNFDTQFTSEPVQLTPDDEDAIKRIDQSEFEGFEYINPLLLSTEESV
- measurement_description: protein kinase C ζ assay
- run_conditions: read-out: IC50 protein kinase C ζ; Table 2, 15 μM ATP
assay_metric: IC50

{"smiles_data": "CON=C1C(=C2C(=O)Nc3cc(Br)ccc32)Nc2ccccc21", "assay_metric": "IC50", "value_measured": "> 10 µM"}

Proceeding to the next compound to report its IC50.
[Q] API: value(readout= IC50, system= UniProt Q05513, query= CC(=O)ON=C1C(=C2C(=O)Nc3cc(Br)ccc32)Nc2ccccc21 )
[A] > 10 µM

----------
- target_desc: GSK-3α/β
- measurement_description: GSK-3α/β kinase assay (GS-1 peptide, 15 μM ATP)
- Format: biochemical, porcine
- run_conditions: Table 4; read-out: IC50 GSK-3
Each record here notes measured IC50.

{"molecule": "CN1C(=O)C(=C2Nc3ccccc3C2=O)c2ccc(Br)cc21 [12c, 6-Bromo-1-methylindirubin]", "assay_metric": "IC50", "value_measured": "> 100 µM"}
{"molecule": "Clc1cc2c(cc1Cl)Oc1cc(Cl)c(Cl)cc1O2 [compound 25, 2,3,7,8-tetrachlorodibenzo-p-dioxin, reference compound]", "assay_metric": "IC50", "value_measured": "> 15 µM"}
{"molecule": "CN1C(=O)C(=C2Nc3ccccc3C2=NO)c2ccccc21 [13d, 1-Methylindirubin-3′-oxime]", "assay_metric": "IC50", "value_measured": "> 100 µM"}

[Q] API: value(readout= IC50, system= GSK-3α/β, query= O=C1Nc2cc(Cl)ccc2C1=C1Nc2ccccc2C1=NO [7d, 6-Chloroindirubin-3′-oxime] )
[A] 0.02 µM

[Q] Another molecule to look at: O=C1Nc2cc(I)ccc2/C1=C1/Nc2ccccc2C1=O [5c, 6-Iodoindirubin]
[A] 0.055 µM

[Q] Another molecule to look at: O=C1Nc2cccc(Cl)c2/C1=C1/Nc2ccccc2C1=O [compound 6, 4-Chloroindirubin]
[A] > 100 µM

[Q] Another molecule to look at: CN1C(=O)/C(=C2\Nc3ccccc3C2=O)c2ccccc21 [12d, 1-Methylindirubin]
[A] > 100 µM

[Q] Another molecule to look at: O=C1Nc2cc(Br)ccc2/C1=C1/Nc2cc(Br)ccc2C1=O [12b, 6,6′-Dibromoindirubin]
[A] 4.5 µM

[Q] Another molecule to look at: CC(=O)ON=C1C(=C2C(=O)Nc3cc(Br)ccc32)Nc2ccccc21 [8a, 6-Bromoindirubin-3′-acetoxime]
[A] 0.01 µM

[Q] Another molecule to look at: CN1C(=O)C(=C2Nc3ccccc3C2=NO)c2ccc(Br)cc21 [13c, 6-Bromo-1-methylindirubin-3′-oxime]
[A] 44 µM

----------
- target_desc: GSK-3α/β
- measurement_description: GSK-3α/β kinase assay (GS-1 peptide, 15 μM ATP)
- Type: biochemical, porcine
- run_conditions: Table 4; read-out: IC50 GSK-3
Each record here notes measured IC50.

Example compounds with recorded IC50:
{"compound": "Cc1ccc2c(c1)/C(=C1/Nc3ccccc3C1=O)C(=O)N2 [compound 15, 5-methyl-indirubin, reference compound]", "target_desc": "GSK-3α/β", "IC50": "62 nM"}
{"compound": "O=C1Nc2ccc(Br)cc2/C1=C1/Nc2ccc(Br)cc2C1=O [compound 21, 5,5′-dibromo-indirubin, reference compound]", "target_desc": "GSK-3α/β", "IC50": "250 nM"}
{"compound": "O=C1Nc2ccccc2/C1=C1/Nc2ccc(Br)cc2C1=O [compound 20, 5′-bromo-indirubin, reference compound]", "target_desc": "GSK-3α/β", "IC50": "350 nM"}
{"compound": "O=C1Nc2ccc(Cl)cc2/C1=C1/Nc2ccccc2C1=O [compound 17, 5-chloro-indirubin, reference compound]", "target_desc": "GSK-3α/β", "IC50": "50 nM"}

[Q] API: value(readout= IC50, system= GSK-3α/β, query= CON=C1C(=C2C(=O)Nc3cc(Br)ccc32)Nc2ccccc21 )
[A] 30 nM

[Q] Another compound to look at: O=C1Nc2ccccc2/C1=C1/Nc2cc(Br)ccc2C1=O [12a, 6′-Bromoindirubin]
[A] 22000 nM

[Q] Another compound to look at: O=C1Nc2ccc(Br)cc2/C1=C1/Nc2ccccc2C1=O [compound 16, 5-bromo-indirubin, reference compound]
[A] 55 nM
